# system name: T1, human CD5 cell differentiation marker (human, UniProt P06127 25-495)
# T1 construct: whole, on cells; Cell-surface CD5; also called CD5 antigen; gp67
# T1 sequence (looked up): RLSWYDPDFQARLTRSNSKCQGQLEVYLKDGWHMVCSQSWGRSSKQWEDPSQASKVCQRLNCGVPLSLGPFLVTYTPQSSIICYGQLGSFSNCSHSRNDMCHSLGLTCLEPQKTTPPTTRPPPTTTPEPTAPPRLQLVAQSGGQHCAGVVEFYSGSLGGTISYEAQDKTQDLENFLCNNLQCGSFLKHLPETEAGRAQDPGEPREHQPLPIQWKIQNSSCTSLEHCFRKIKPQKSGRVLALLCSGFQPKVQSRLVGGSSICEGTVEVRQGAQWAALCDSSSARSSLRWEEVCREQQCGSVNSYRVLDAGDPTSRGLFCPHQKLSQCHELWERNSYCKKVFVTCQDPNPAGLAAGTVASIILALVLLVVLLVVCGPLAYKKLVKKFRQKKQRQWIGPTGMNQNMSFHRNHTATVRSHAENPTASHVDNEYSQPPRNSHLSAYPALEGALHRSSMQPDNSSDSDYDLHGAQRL
# assay remarks: competition with 0.1 nM ^125I-cH65 IgG on Molt-4M cells, fitted with MacLigand
quantity measured: pKd
One number for each entry, as −log10 of the molar value.

The recorded pKd for entry low-risk he1 Fab (Fab, V domains shown, also called hel Fab; Low-Risk Fab) VH: QIQLVQSGPGLKKPGGSVRISCAASGYTFTNYGMNWVKQAPGKGLRWMGWINTHTGEPTYADDFKGRFTFSLDTSKSTAYLQINSLRAEDTATYFCTRRGYDWYFDVWGQGTTVTVSS VL: DIQMTQSPSSMSASLGDRVTITCRASQDINSYLSWFQQKPGKSPKTLIYRANRLVDGVPSRFSGSGSGTDYTLTISSLQYEDFGIYYCQQYDESPWTFGGGTKLEIK equals 7.84
